- MEASURED ON: p53 Y220C mutant protein (amino acid residues 94-293) (Homo sapiens, UniProt P04637, Y220C)
- Construct: p53 Y220C mutant protein (amino acid residues 94-293)
- Sequence (P04637 94-293, stated change not applied): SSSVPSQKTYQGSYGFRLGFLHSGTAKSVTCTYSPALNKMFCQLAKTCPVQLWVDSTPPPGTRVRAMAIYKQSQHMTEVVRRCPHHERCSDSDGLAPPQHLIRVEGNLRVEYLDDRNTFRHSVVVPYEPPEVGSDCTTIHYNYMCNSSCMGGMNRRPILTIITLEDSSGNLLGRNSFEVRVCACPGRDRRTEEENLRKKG
- ASSAY: Surface Plasmon Resonance (SPR) assay, p53 Y220C Kd_kinetic
- EXPERIMENTAL CONDITIONS: multi-cycle kinetics, 16 or 20 °C, pH 7.5, 1:1 binding model
pKd: −log10 of the molar value.
REPORTED METRIC: pKd

Answered examples (5):
The measured pKd associated with C[C@H](NC(=O)C1CC1)c1nc(-c2cc3c(N[C@@H]4CCN(C)C[C@@H]4F)cccn3c2SC(F)(F)F)no1 reads 7.00 to 8.00

The measured pKd associated with CN1CC[C@@H](Nc2cccn3c(SC(F)(F)F)c(-c4noc(CNC(=O)C5(O)CC5)n4)cc23)[C@@H](F)C1 reads > 8.00

The measured pKd associated with CN1CC[C@@H](Nc2cccn3c(SC(F)(F)F)c(-c4noc(CNC(=O)[C@H]5COCCO5)n4)cc23)[C@@H](F)C1 reads > 8.00

The measured pKd associated with COCC1(n2ccc(C(=O)NCc3nc(-c4cc5c(N[C@@H]6CCN(C)C[C@@H]6F)cccn5c4SC(F)(F)F)no3)c2)CC1 reads > 8.00

The measured pKd associated with CN1CC[C@@H](Nc2cccn3c(SC(F)(F)F)c(-c4noc(CNC(=O)c5ncn[nH]5)n4)cc23)[C@@H](F)C1 reads > 8.00

Continuing:
The measured pKd associated with CN1CC[C@@H](Nc2cccn3c(SC(F)(F)F)c(-c4noc(CNC(=O)c5ncon5)n4)cc23)[C@@H](F)C1 reads > 8.00

The measured pKd associated with Cc1noc(C(=O)NCc2nc(-c3cc4c(N[C@@H]5CCN(C)C[C@@H]5F)cccn4c3SC(F)(F)F)no2)n1 reads > 8.00

====

- MEASURED ON: p53 Y220C (Homo sapiens, UniProt P04637, Y220C)
- ASSAY: Luciferase Reporter Assay, p53 Y220C (NCIH1299 cells with inducible p53 Y220C and p53 response element-luciferase)
- Type: cell-based
- EXPERIMENTAL CONDITIONS: 6 hour compound treatment, read-out: Luc P53 Y220C AC50
REPORTED METRIC: AC50

Answered examples (4):
The measured AC50 associated with CN1CC[C@@H](Nc2cccn3c(SC(F)(F)F)c(-c4noc(CNC(=O)c5ccns5)n4)cc23)[C@@H](F)C1 reads < 750 nM

The measured AC50 associated with CN1CC[C@@H](Nc2cccn3c(SC(F)(F)F)c(-c4noc(CNC(=O)c5ncon5)n4)cc23)[C@@H](F)C1 reads 750 to 1500 nM

The measured AC50 associated with COc1ccc2cc(C(=O)NCc3nc(-c4cc5c(N[C@@H]6CCN(C)C[C@@H]6F)cccn5c4SC(F)(F)F)no3)n(C)c2c1 reads ≥ 3000 nM

The measured AC50 associated with CN1CC[C@@H](Nc2cccn3c(SC(F)(F)F)c(-c4cc(CNC(=O)c5cnn(C(C)(C)C)c5)no4)cc23)[C@@H](F)C1 reads < 750 nM

Continuing:
The measured AC50 associated with CNC(=O)c1cnc(NCc2nc(-c3cc4c(N[C@@H]5CCN(C)C[C@@H]5F)cccn4c3SC(F)(F)F)no2)nc1 reads < 750 nM

The measured AC50 associated with CN1CC[C@@H](Nc2cccn3c(SC(F)(F)F)c(-c4noc(CNC(=O)N5CCOCC5)n4)cc23)[C@@H](F)C1 reads 750 to 1500 nM

The measured AC50 associated with CN1CC[C@@H](Nc2cccn3c(SC(F)(F)F)c(-c4noc(CNC(=O)c5ccn(CCF)c5)n4)cc23)[C@@H](F)C1 reads < 750 nM

Reference for the values: patent US20260347353A1
